pIC50 for assorted compounds
Biological target: full-length NS3/NS4A-2 (HCV NS3 protease) (Hepatitis C virus genotype 1a, UniProt P27958)
Construct: Recombinant E. coli or Baculovirus full-length NS3 was diluted to 3.33 μM with assay buffer; made in house; host or cells: E. coli or baculovirus (BV) expression system
Sequence (P27958 1027-1657): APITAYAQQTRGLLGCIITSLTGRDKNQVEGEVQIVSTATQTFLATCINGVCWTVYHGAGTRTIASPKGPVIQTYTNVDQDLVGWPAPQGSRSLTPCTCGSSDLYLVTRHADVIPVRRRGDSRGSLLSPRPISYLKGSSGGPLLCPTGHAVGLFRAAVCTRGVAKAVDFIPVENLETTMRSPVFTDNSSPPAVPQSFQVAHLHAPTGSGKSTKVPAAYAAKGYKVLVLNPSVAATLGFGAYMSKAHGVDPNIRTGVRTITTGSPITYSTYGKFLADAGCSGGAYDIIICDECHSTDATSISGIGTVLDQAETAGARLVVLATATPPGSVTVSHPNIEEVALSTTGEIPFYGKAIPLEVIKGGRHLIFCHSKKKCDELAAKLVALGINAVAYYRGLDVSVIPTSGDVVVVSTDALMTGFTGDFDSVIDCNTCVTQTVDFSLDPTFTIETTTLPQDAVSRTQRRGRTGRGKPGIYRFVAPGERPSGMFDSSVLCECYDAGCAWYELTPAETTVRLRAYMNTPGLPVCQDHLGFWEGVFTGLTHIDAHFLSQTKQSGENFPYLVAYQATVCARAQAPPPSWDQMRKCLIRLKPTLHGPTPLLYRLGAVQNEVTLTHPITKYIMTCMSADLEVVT
Assay: NS3-NS4 protease assay / NS3 inhibition assay (RETS1 substrate, fluorescence kinetic read)
Format: biochemical
Settings: recombinant E. coli or Baculovirus full-length NS3 with NS4A-2; read-out: NS3-NS4 IC50
pIC50: −log10 of the molar value.
readout.name: pIC50

[
  {
    "compound": "CCOC(=O)[C@@]12C[C@H]1/C=C\\CCCCC[C@H](Nc1c(N3CCC3)c(=O)c1=O)C(=O)N1C[C@H](OC(=O)N3Cc4cccc(F)c4C3)C[C@H]1C(=O)N2",
    "study.system": "full-length NS3/NS4A-2 (HCV NS3 protease) (Hepatitis C virus genotype 1a, UniProt P27958)",
    "val": "> 7.00"
  },
  {
    "compound": "CC(C)(C)OC(=O)N[C@H]1CCCOC/C=C\\[C@@H]2C[C@@]2(C(=O)NCC2CC2)NC(=O)[C@@H]2C[C@@H](OC(=O)N3Cc4cccc(F)c4C3)CN2C1=O",
    "study.system": "full-length NS3/NS4A-2 (HCV NS3 protease) (Hepatitis C virus genotype 1a, UniProt P27958)",
    "val": "> 7.00"
  },
  {
    "compound": "CC(C)(C)OC(=O)N[C@H]1CCOCC/C=C\\[C@@H]2C[C@@]2(C(=O)O)NC(=O)[C@@H]2C[C@@H](OC(=O)N3Cc4cccc(F)c4C3)CN2C1=O",
    "study.system": "full-length NS3/NS4A-2 (HCV NS3 protease) (Hepatitis C virus genotype 1a, UniProt P27958)",
    "val": "> 7.00"
  },
  {
    "compound": "O=C(N[C@H]1CCC(F)(F)CC/C=C\\[C@@H]2C[C@@]2(C(=O)NS(=O)(=O)C2CC2)NC(=O)[C@@H]2C[C@@H](OC(=O)N3Cc4cccc(F)c4C3)CN2C1=O)OC1CCCC1 [Compound 1005]",
    "study.system": "full-length NS3/NS4A-2 (HCV NS3 protease) (Hepatitis C virus genotype 1a, UniProt P27958)",
    "val": "> 7.00"
  },
  {
    "compound": "CC(C)(C)OC(=O)N[C@H]1CCC(O)CC/C=C\\[C@@H]2C[C@@]2(C(=O)O)NC(=O)[C@@H]2C[C@@H](OC(=O)N3Cc4cccc(F)c4C3)CN2C1=O (some centres unmarked)",
    "study.system": "full-length NS3/NS4A-2 (HCV NS3 protease) (Hepatitis C virus genotype 1a, UniProt P27958)",
    "val": "> 6.00"
  },
  {
    "compound": "CC(C)(C)OC(=O)N[C@H]1CCCCC/C=C\\[C@@H]2C[C@@]2(C(=O)Nc2ccccc2)NC(=O)[C@@H]2C[C@@H](OC(=O)N3Cc4ccccc4C3)CN2C1=O",
    "study.system": "full-length NS3/NS4A-2 (HCV NS3 protease) (Hepatitis C virus genotype 1a, UniProt P27958)",
    "val": "> 7.00"
  },
  {
    "compound": "CC(C)(C)OC(=O)N[C@H]1CCCCC/C=C\\[C@@H]2C[C@@]2(C(=O)NS(=O)(=O)Nc2ccc(F)cc2)NC(=O)[C@@H]2CCCN2C1=O",
    "study.system": "full-length NS3/NS4A-2 (HCV NS3 protease) (Hepatitis C virus genotype 1a, UniProt P27958)",
    "val": "> 6.00"
  },
  {
    "compound": "CC(C)(C)OC(=O)N[C@H]1CCCCC/C=C\\[C@@H]2C[C@@]2(C(=O)NS(=O)(=O)C2CC2)NC(=O)[C@@H]2C[C@@H](OC(=O)N3Cc4c(Cl)ccc(Cl)c4C3)CN2C1=O",
    "study.system": "full-length NS3/NS4A-2 (HCV NS3 protease) (Hepatitis C virus genotype 1a, UniProt P27958)",
    "val": "> 7.00"
  },
  {
    "compound": "CC(C)(C)OC(=O)N[C@H]1CCCCC/C=C\\[C@@H]2C[C@@]2(C(=O)NS(=O)(=O)c2cccc(C#N)c2)NC(=O)[C@@H]2CCCN2C1=O",
    "study.system": "full-length NS3/NS4A-2 (HCV NS3 protease) (Hepatitis C virus genotype 1a, UniProt P27958)",
    "val": "> 5.00"
  },
  {
    "compound": "CC(C)(C)OC(=O)N[C@H]1CCCCC/C=C\\[C@@H]2C[C@@]2(C(=O)Nc2n[nH]c(C3CC3)n2)NC(=O)[C@@H]2C[C@@H](OC(=O)N3Cc4cccc(F)c4C3)CN2C1=O",
    "study.system": "full-length NS3/NS4A-2 (HCV NS3 protease) (Hepatitis C virus genotype 1a, UniProt P27958)",
    "val": "> 7.00"
  },
  {
    "compound": "O=C1N[C@]2(C(=O)NS(=O)(=O)C3CC3)C[C@H]2/C=C\\CCCCC[C@H](NC(=O)N2CCCC2)C(=O)N2C[C@H](OC(=O)N3Cc4cccc(F)c4C3)C[C@@H]12",
    "study.system": "full-length NS3/NS4A-2 (HCV NS3 protease) (Hepatitis C virus genotype 1a, UniProt P27958)",
    "val": "> 7.00"
  },
  {
    "compound": "CC(C)(C)OC(=O)N[C@H]1CCCCC/C=C\\[C@@H]2C[C@@]2(C(=O)NCC2CC2)NC(=O)[C@@H]2C[C@@H](OC(=O)N3Cc4cccc(Cl)c4C3)CN2C1=O",
    "study.system": "full-length NS3/NS4A-2 (HCV NS3 protease) (Hepatitis C virus genotype 1a, UniProt P27958)",
    "val": "> 7.00"
  },
  {
    "compound": "CC(C)(C)OC(=O)N[C@H]1CCCCC/C=C\\[C@@H]2C[C@@]2(C(=O)NS(=O)(=O)NC2CC2)NC(=O)[C@@H]2C[C@@H](OC(=O)N3Cc4cccc(Cl)c4C3)CN2C1=O",
    "study.system": "full-length NS3/NS4A-2 (HCV NS3 protease) (Hepatitis C virus genotype 1a, UniProt P27958)",
    "val": "> 7.00"
  },
  {
    "compound": "CC(C)(C)OC(=O)N[C@H]1CCOCCCC[C@@H]2C[C@@]2(C(=O)NS(=O)(=O)C2CC2)NC(=O)[C@@H]2C[C@@H](OC(=O)N3Cc4cccc(F)c4C3)CN2C1=O",
    "study.system": "full-length NS3/NS4A-2 (HCV NS3 protease) (Hepatitis C virus genotype 1a, UniProt P27958)",
    "val": "> 7.00"
  },
  {
    "compound": "CN(C)S(=O)(=O)NC(=O)[C@@]12C[C@H]1/C=C\\CCCCC[C@H](NC(=O)OC1CCCC1)C(=O)N1C[C@H](OC(=O)N3Cc4cccc(F)c4C3)C[C@H]1C(=O)N2",
    "study.system": "full-length NS3/NS4A-2 (HCV NS3 protease) (Hepatitis C virus genotype 1a, UniProt P27958)",
    "val": "> 7.00"
  },
  {
    "compound": "O=C1N[C@]2(C(=O)NS(=O)(=O)C3CC3)C[C@H]2/C=C\\CCCCC[C@H](Nc2c(N3CCC3)c(=O)c2=O)C(=O)N2C[C@H](OC(=O)N3Cc4cccc(Cl)c4C3)C[C@@H]12",
    "study.system": "full-length NS3/NS4A-2 (HCV NS3 protease) (Hepatitis C virus genotype 1a, UniProt P27958)",
    "val": "> 7.00"
  },
  {
    "compound": "CC(C)(C)OC(=O)NC1CCCCCCCC=CC2CC2(C(=O)NS(=O)(=O)c2ccc([N+](=O)[O-])cc2)NC(=O)C2CCCN2C1=O (centres unmarked)",
    "study.system": "full-length NS3/NS4A-2 (HCV NS3 protease) (Hepatitis C virus genotype 1a, UniProt P27958)",
    "val": "> 5.00"
  },
  {
    "compound": "CC(=O)N[C@H](C(=O)N[C@H]1CCCCC/C=C\\[C@@H]2C[C@@]2(C(=O)NS(=O)(=O)C2CC2)NC(=O)[C@@H]2C[C@@H](OC(=O)N3Cc4cccc(Cl)c4C3)CN2C1=O)C1CCCCC1",
    "study.system": "full-length NS3/NS4A-2 (HCV NS3 protease) (Hepatitis C virus genotype 1a, UniProt P27958)",
    "val": "> 7.00"
  },
  {
    "compound": "CN(Cc1ccccc1)S(=O)(=O)NC(=O)[C@@]12C[C@H]1/C=C\\CCCCC[C@H](NC(=O)OC(C)(C)C)C(=O)N1C[C@H](OC(=O)N3Cc4cccc(F)c4C3)C[C@H]1C(=O)N2",
    "study.system": "full-length NS3/NS4A-2 (HCV NS3 protease) (Hepatitis C virus genotype 1a, UniProt P27958)",
    "val": "> 7.00"
  },
  {
    "compound": "CC(C)(C)OC(=O)N[C@H]1CCCCC/C=C\\[C@@H]2C[C@@]2(C(=O)NS(N)(=O)=O)NC(=O)[C@@H]2CCCN2C1=O",
    "study.system": "full-length NS3/NS4A-2 (HCV NS3 protease) (Hepatitis C virus genotype 1a, UniProt P27958)",
    "val": "> 6.00"
  }
]
